Source: patent US20140128352A1

test system: ubiquinone binding site of complex I (IQ); assay: High-throughput screen: ROS production from ubiquinone binding site of complex I (IQ), isolated skeletal muscle mitochondria; type: biochemical, rat; conditions: Table 7; percent change in ROS from DMSO controls
So basically: is IQ under -3? Then YES. Not under? Then NO.

compound	qualitative-label
c1ccc2[nH]c(-c3ccc(-c4nc5ccccc5[nH]4)cc3)nc2c1	YES
Oc1nnc(Cc2ccncc2)c2ccccc12	NO
CC1=CC(C)C(C2OCC(CN3CCCCC3)O2)C(C)C1 (centres unmarked)	NO
O=C(Nc1ccc(-c2nc3ccccc3[nH]2)cc1)C1CC1	NO
CCSC1=C(C#N)C2(CCCC2)C(C#N)C(=O)N1 (centres unmarked)	YES
Cc1ccc2[nH]c(-c3ccc(NC(=O)CCC(=O)O)cc3)nc2c1	NO
CC(=O)Nc1ccc(S(=O)(=O)Nc2cccc(C)c2)cc1	YES
CCCN(CCO)Cc1ccc2c(c1)c1ccccc1n2CC	NO
COC(=O)CCC(=O)Nc1ccc(C)cc1	NO
COc1ccc(Cl)cc1N(Cc1ccccc1)Cc1ccccc1	NO
O=C(Nc1ccccc1F)[C@@H]1C2C=CC(C2)[C@@H]1C(=O)O (some centres unmarked)	NO
CCOc1ccc(C(=O)Nc2ccc(-c3nc4ccccc4[nH]3)cc2)cc1	YES
O=C(O)CCC(=O)Nc1ccc(-c2nc3cc(NC(=O)CCC(=O)O)ccc3[nH]2)cc1	NO
O=C(O)CSc1cccc(C(=O)Nc2ccc(Br)cc2)c1	NO
CCN1CCN(C/C=C/c2ccc(N(C)C)cc2)CC1	NO
Cc1ccccc1NS(=O)(=O)c1ccc(C2CCCCC2)cc1	YES
O=[N+]([O-])c1ccc(Oc2ccc(S(=O)(=O)Nc3ccc4c(c3)OCCO4)cc2)cc1	YES
CCN1CCN(C2CCC(C(C)(C)C)CC2)CC1 (centres unmarked)	NO
CCCCCCNC(=O)CCC(=O)O	NO
Cc1ccccc1NS(=O)(=O)c1ccc(-c2ccc(S(=O)(=O)Nc3ccccc3C)cc2)cc1	YES
